# credit: ChEMBL document CHEMBL3397027

- Organism: Rattus norvegicus
- assay-explanation: Selectivity index, ratio of IC50 for rat serum BuChE to IC50 for AChE from rat cortex homogenate
- Format: cell-free
Recorded Ratio IC50 determines the group label, using bottom: < 10; middle: ≥ 10 and < 100; top: ≥ 100

Recorded results for 6 compounds are shown here.
line-notation	label
COc1cc(O)c2c(=O)cc(C(=O)NCCCCCCN(C)Cc3ccccc3OC)oc2c1	middle
CCN(CCCNC(=O)c1cc(=O)c2c(O)cc(OC)cc2o1)Cc1ccccc1	middle
CCN(CCCCCCNC(=O)c1cc(=O)c2c(O)cccc2o1)Cc1ccccc1OC	top
C#CCN(CCCCNC(=O)c1cc(=O)c2c(O)cc(OC)cc2o1)Cc1ccccc1OC	bottom
COc1ccccc1CN(C)CCCNC(=O)c1cc(=O)c2c(O)cccc2o1	middle
CCN(CCCCCCNC(=O)c1cc(=O)c2c(O)cc(O)cc2o1)Cc1ccccc1OC	top

Query block: Band for the recorded Ratio IC50 of "COc1cc(O)c2c(=O)cc(C(=O)NCCCCCCN(C)Cc3ccccc3)oc2c1" ?
Result block: middle

Query block: Band for the recorded Ratio IC50 of "CCN(CCCNC(=O)c1cc(=O)c2c(O)cc(OC)cc2o1)Cc1ccccc1OC" ?
Result block: top

Query block: Band for the recorded Ratio IC50 of "CCN(CCCCNC(=O)c1cc(=O)c2c(O)cccc2o1)Cc1ccccc1OC" ?
Result block: top

Query block: Band for the recorded Ratio IC50 of "COc1cc(O)c2c(=O)cc(C(=O)NCCCCN(C)Cc3ccccc3OC)oc2c1" ?
Result block: middle

Query block: Band for the recorded Ratio IC50 of "CCN(CCCNC(=O)c1cc(=O)c2c(O)cccc2o1)Cc1ccccc1OC" ?
Result block: top

Query block: Band for the recorded Ratio IC50 of "CCN(CCCCNC(=O)c1cc(=O)c2c(O)cc(OC)cc2o1)Cc1ccc(N(C)C)cc1" ?
Result block: bottom

Query block: Band for the recorded Ratio IC50 of "CCN(CCCCNC(=O)c1cc(=O)c2c(O)cc(N(C)C)cc2o1)Cc1ccccc1OC" ?
Result block: top

Query block: Band for the recorded Ratio IC50 of "CN(CCCNC(=O)c1cc(=O)c2c(O)cccc2o1)Cc1ccccc1" ?
Result block: bottom

Query block: Band for the recorded Ratio IC50 of "CCN(CCCCNC(=O)c1cc(=O)c2c(O)cc(N(C)C)cc2o1)Cc1ccccc1N(C)C" ?
Result block: top

---

- system-under-test: Amyloid-beta precursor protein (Homo sapiens) (UniProt P05067)
- Sequence (P05067 whole entry): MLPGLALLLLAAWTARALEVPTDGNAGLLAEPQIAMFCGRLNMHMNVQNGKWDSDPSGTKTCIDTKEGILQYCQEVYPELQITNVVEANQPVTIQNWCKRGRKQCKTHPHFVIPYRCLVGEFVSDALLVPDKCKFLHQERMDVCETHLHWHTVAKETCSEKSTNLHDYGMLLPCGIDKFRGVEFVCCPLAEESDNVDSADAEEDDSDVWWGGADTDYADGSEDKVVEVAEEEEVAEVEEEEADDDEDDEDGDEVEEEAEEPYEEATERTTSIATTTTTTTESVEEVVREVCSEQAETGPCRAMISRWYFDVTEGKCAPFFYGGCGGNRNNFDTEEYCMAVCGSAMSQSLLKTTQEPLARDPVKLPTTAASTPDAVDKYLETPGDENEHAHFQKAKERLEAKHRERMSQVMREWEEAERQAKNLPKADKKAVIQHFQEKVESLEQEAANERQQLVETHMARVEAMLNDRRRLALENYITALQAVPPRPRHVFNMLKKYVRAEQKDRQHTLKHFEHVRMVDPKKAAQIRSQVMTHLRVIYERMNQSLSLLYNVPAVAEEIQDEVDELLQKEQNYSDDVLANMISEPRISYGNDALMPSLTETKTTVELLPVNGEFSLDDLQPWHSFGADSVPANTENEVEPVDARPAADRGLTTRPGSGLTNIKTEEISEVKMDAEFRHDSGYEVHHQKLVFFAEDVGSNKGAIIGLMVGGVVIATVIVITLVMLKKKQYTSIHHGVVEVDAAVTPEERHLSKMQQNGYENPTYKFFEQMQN
- assay-explanation: Inhibition of self-mediated aggregation of amyloid beta (1-42) (unknown origin) at 25 uM after 24 hrs by thioflavin T fluorescence-based fluorimetric method
Entries annotated with measured inhibition
Your answer is read as %, so omit the unit and give the number.

Before answering, review these 4 worked examples.
line-notation	system-under-test	units-text	observed-measurement
COc1ccccc1CN(C)CCCCNC(=O)c1cc(=O)c2c(O)cccc2o1	Amyloid-beta precursor protein (Homo sapiens) (UniProt P05067)	%	49.3
COc1cc(O)c2c(=O)cc(C(=O)NCCCN(C)Cc3ccccc3)oc2c1	Amyloid-beta precursor protein (Homo sapiens) (UniProt P05067)	%	23
COc1cc(O)c2c(=O)cc(C(=O)NCCCCCCN(C)Cc3ccccc3OC)oc2c1	Amyloid-beta precursor protein (Homo sapiens) (UniProt P05067)	%	43.9
COc1cc(O)c2c(=O)cc(C(=O)NCCCN(C)Cc3ccccc3OC)oc2c1	Amyloid-beta precursor protein (Homo sapiens) (UniProt P05067)	%	43.6

Switching to the query record.
Query block: Could you please provide reported inhibition for "CCN(CCCCNC(=O)c1cc(=O)c2c(O)cc(N(C)C)cc2o1)Cc1ccccc1N(C)C" ? Thanks!
Result block: 40.8
